Target: T1, DLL3 on CT26.DLL3 cells (Homo sapiens (Human), UniProt Q9NYJ7 27-618)
T1 construct: CT26.DLL3 are engineered cells to express DLL3
T1 sequence: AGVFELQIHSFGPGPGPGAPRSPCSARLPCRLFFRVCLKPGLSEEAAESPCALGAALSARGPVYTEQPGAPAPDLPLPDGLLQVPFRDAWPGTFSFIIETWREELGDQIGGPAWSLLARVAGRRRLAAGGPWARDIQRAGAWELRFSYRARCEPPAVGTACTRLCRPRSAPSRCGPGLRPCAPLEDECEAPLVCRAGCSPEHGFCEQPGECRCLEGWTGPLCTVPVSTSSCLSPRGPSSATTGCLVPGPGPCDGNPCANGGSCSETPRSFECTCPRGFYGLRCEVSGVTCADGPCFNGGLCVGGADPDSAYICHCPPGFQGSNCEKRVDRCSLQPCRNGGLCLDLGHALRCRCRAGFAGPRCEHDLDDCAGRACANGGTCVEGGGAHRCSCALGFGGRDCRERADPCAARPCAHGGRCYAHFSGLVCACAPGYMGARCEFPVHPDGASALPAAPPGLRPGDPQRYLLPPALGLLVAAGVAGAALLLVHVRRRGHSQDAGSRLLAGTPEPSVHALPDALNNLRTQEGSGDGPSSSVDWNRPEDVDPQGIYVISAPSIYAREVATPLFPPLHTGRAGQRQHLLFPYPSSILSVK
Experiment: 177Lu-peptide bound to CT26.DLL3 cells, gamma counting; letter grade, key in paragraph 629
Numbered stars: 1 amine (or outer) side, 2 acyl side, 3 side chain; on linkers, the order of the positions; unused ones are H or OH. Bridge positions count the residues as written; N and C are the ends. Square brackets hold non-standard residues; d marks the D form. * marks the point of attachment. Ala(piperidin-4-yl) = O=C([C@H](CC1CCN([*:3])CC1)N[*:1])[*:2]; DOTA = O=C(O)CN1CCN(CC(=O)O)CCN(CC(=O)*)CCN(CC(=O)O)CC1; 2Nal = N[C@@H](Cc1ccc2ccccc2c1)C(=O)O
observable: % Binding

[
  {
    "binder": "Ac-WTICN[Ala(piperidin-4-yl)][2Nal]HDCWP[dK](DOTA)-NH2 (disulfide 4-10; also: 177Lu in the DOTA chelator, also called [177Lu]Lu-test peptide) [[177Lu]Lu-labelled Cpd No. 267]",
    "observable": "% Binding",
    "observed": "≤ 25%"
  },
  {
    "binder": "Ac-WTICNN[2Nal]HNCWP[dK](DOTA)-NH2 (disulfide 4-10; also: 177Lu chelated in DOTA, also called [177Lu]Lu-test peptide) [[177Lu]Lu-labelled Cpd No. 211]",
    "observable": "% Binding",
    "observed": "≤ 25%"
  }
]

FYI, the data here is from patent US20250011368A1.
